Target: monoclonal antibody 4C3 (anti-Bla g 2)
Sequence (chain, as listed by the source, chain 1 of 2): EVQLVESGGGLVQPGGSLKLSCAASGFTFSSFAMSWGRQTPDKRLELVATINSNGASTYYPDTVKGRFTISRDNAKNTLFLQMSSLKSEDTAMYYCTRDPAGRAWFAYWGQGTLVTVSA
Sequence (chain, as listed by the source, chain 2 of 2): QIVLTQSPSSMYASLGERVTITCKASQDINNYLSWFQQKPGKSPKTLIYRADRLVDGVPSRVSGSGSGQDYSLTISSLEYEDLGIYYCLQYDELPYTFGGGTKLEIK
Assay: competition ELISA
Settings: chain shown with the change; competitor concentration 1 µg/ml; solid phase rBla g 2-N93Q; parent: est. 32; read off a plot
endpoint: other: Biotinylated mAb 4C3 bound to Bla g 2 (%)
Please give a number only; it is taken to be in %.

# input Suppose we examine the binder recombinant Bla g 2-N93Q E233A (protein) VPLYKLVHVFINTQYAGITKIGNQNFLTVFDSTSCNVVVASQECVGGACVCPNLQKYEKLKPKYISDGNVQVKFFDTGSAVGRGIEDSLTISQLTTSQQDIVLADELSQEVCILSADVVVGIAAPGCPNALKGKTVLENFVEENLIAPVFSIHHARFQDGEHFGEIIFGGSDWKYVDGEFTYVPLVGDDSWKFRLDGVKIGDTTVAPAGTQAIIDTSKAIIVGPKAYVNPINAAIGCVVEKTTTRRICKLDCSKIPSLPDVTFVINGRNFNISSQYYIQQNGNLCYSGFQPCGHSDHFFIGDFFVDHYYSEFNWENKTMGFGRSVESV ; what other: Biotinylated mAb 4C3 bound to Bla g 2 (%) value has been reported?
# output 58

Attribution: paper PMC3137622
